- ASSAY_NAME: inhibitors of E-selectin induction by TNFa, primary screen, imaging, HUVEC, immunofluorescence, MLSMR starter and 10KST1 sets (AID 487);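 for inhibition: signal is fraction of cell area covered by stained E-selectin grains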
- CONDITION_NOTES: HUVEC TNFalpha-induced E-selectin immunofluorescence imaging, at 2 µM; stronger effect = higher value
Use -10% as the dividing line for inhibition, with the line itself on the true (1) side and lower values as false (0).

> print(dat)
                                    compound  qualitative.label
 1  CN1CCc2c(n(CC(O)CN3C(=O)c4ccccc4S3(=O)=O)c3ccccc23)C1=O (centres undefined)          false (0)
 2          O=C(NCCc1ccccc1)/C(=N\O)c1ccccc1           true (1)
 3              c1ccc(-c2noc(C3CCCCC3)n2)nc1          false (0)
 4            CCN(CC)CCn1c2ccccc2c2nc(C)sc21           true (1)
 5  N#Cc1cc2ccccc2nc1SCC(=O)Nc1ccccc1N1CCOCC1          false (0)
 6  CCS(=O)(=O)N1CCC(C(=O)NCCc2ccc(C)cc2)CC1          false (0)
 7  O=C(OCc1ccc2c(c1)OCO2)c1ccc(S(=O)(=O)N2CCCCC2)cc1           true (1)
 8         FC(F)(F)c1cccc(N2CCc3cn[nH]c32)c1          false (0)
 9  COCCn1c(SCC(=O)Nc2sc(C)c(C)c2C#N)nnc1C(C)C           true (1)
10    Cc1ccc(-c2ccc(SCC(=O)Nc3nonc3C)nn2)cc1          false (0)
11             O=c1c2c3c(sc2nc2n1CCCS2)CCCC3          false (0)
12          CCc1c(C)c2ccc(OCC(=O)OC)cc2oc1=O           true (1)
13  O=S(=O)(c1cccc2nsnc12)N1CCN(C/C=C/c2ccccc2)CC1           true (1)
14  Nc1nc(N2C(=O)C3CC=CCC3C2=O)nn1-c1ccccc1 (centres undefined)          false (0)
15  CCOC(=O)C1CCCN(c2nc3ccccc3nc2C(C#N)C(=O)OC(C)COC)C1 (centres undefined)          false (0)
16  COC(=O)c1cc(-c2ccccc2)sc1NC(=O)c1cc(C)on1          false (0)
17  Cn1c(=O)n(CC(=O)OCc2ccccc2)c(=O)c2c1nc1n2CCCN1C1CCCCC1           true (1)
18               Cc1cc(OCC(=O)NCCO)cc(C)c1Cl           true (1)
19  CCN(CC)CCN1C(=O)C(O)=C(C(=O)c2cc3ccccc3o2)C1c1cccnc1 (centres undefined)           true (1)
20  Cn1ccnc1C(O)c1ccc(OCc2ccccc2)cc1 (centres undefined)          false (0)
21      COc1cccc(-c2cc(C(=O)N3CCCCCC3)no2)c1          false (0)
22              CCOC(=O)c1c(N)sc(=S)c2c1CCC2          false (0)
23            Brc1ccc(-c2cnnc(N3CCCC3)n2)cc1          false (0)
24  O=C(Nc1ccccc1)C1=C(O)CC(c2ccoc2)CC1=Nc1ccccc1 (centres undefined)          false (0)

====

- ASSAY_NAME: DUSP6 inhibitors restoring Erk phosphorylation by chemical complementation, primary imaging in DUSP6-transfected HeLa (AID 609)
- CONDITION_NOTES: HeLa MKP-3 transfected, phospho-Erk imaging KS statistic; measured here: nuclear pErk red intensity z-score; at 10 µM; stronger effect = higher value; cells stimulated with TPA for 15 min
RECORDED_METRIC: z-score

> print(dat)
                                    compound  recorded.metric  obs.value
 1  O=C1CC(NCc2ccncc2)C(=O)N1c1ccc(Cl)cc1 (configuration not stated)          z-score     -0.794
 2           O=C(NCc1ccccn1)c1coc(=O)c(Br)c1          z-score      -0.53
 3          Cc1ccc(OCC(=O)N(C)CCc2ccccn2)cc1          z-score       1.57
 4               CSc1nc2sc3c(c2c2nnnn12)CCC3          z-score       0.37
 5  CCOc1ccc(N=C2C(=O)N(CN3CCOCC3)c3ccccc32)cc1          z-score     -0.416
 6      CCOC(=O)c1ccc(NC(=O)COc2ccccc2OC)cc1          z-score      -1.19
 7  COc1ccc(C2NC(=O)NC(O)(C(F)(F)F)C2C(=O)c2ccc(F)cc2)cc1 (configuration not stated)          z-score      0.887
 8        C=C(C)CN(CC)CCC(=O)Nc1ccc(OC)cc1OC          z-score      0.762
 9       C=CCn1c(-c2ccc(OC)c(OC)c2)n[nH]c1=S          z-score     -0.521
10  COc1cccc(NC(=O)C2CC(=O)n3cnnc3S2)c1 (configuration not stated)          z-score      -0.46
11    COc1cc(S(=O)(=O)N2CCN(C)CC2)c(OC)cc1Br          z-score     -0.865
12          CCCCCCOc1ccc(C(=O)n2cnc(N)n2)cc1          z-score     -0.706

====

Each record here notes measured fluorescence slope.
- ASSAY_TARGET: Voltage-gated potassium channel subunit beta-2 (Rattus norvegicus) (UniProt P62483)
- Sequence (P62483 whole entry, looked up): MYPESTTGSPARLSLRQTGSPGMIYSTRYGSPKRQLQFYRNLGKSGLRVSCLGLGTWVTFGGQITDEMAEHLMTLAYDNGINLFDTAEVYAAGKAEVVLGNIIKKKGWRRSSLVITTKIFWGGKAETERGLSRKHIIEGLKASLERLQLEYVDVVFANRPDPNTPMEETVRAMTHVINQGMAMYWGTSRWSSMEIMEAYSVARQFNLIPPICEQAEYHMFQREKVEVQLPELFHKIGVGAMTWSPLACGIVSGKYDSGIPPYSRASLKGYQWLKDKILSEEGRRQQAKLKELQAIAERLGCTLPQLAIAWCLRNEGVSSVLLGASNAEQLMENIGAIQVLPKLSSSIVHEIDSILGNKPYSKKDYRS
- ASSAY_NAME: KvBeta enzyme negative modulators, primary screen, biochemical, NADPH fluorescence (AID 622);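 note: slope of raw intensity against log time taken from 70 to 1610 s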
- CONDITION_NOTES: recombinant KvBeta, 4-cyanobenzaldehyde reduction, at 10 µM, stronger effect = higher value
RECORDED_METRIC: fluorescence slope

> print(dat)
                                   molecule                              assay.target     recorded.metric  obs.value
1  COc1ccc(OC)c(C(=O)CSc2nnc(-c3ccc(OC)c(OC)c3)o2)c1  Voltage-gated potassium channel subunit beta-2 (Rattus norvegicus) (UniProt P62483)  fluorescence slope     -0.458
2                    O=C(Nc1ccccn1)N1CCOCC1  Voltage-gated potassium channel subunit beta-2 (Rattus norvegicus) (UniProt P62483)  fluorescence slope     -0.303
3  N#CC1=C(SCC(=O)c2cc3ccccc3oc2=O)NC(=O)C(C#N)C12CCCC2 (stereo unspecified)  Voltage-gated potassium channel subunit beta-2 (Rattus norvegicus) (UniProt P62483)  fluorescence slope     -0.493
4           COc1ccc(C)cc1S(=O)(=O)Nc1cccnc1  Voltage-gated potassium channel subunit beta-2 (Rattus norvegicus) (UniProt P62483)  fluorescence slope     -0.475
5                  C=CCc1ccccc1OCCCCN1CCCC1  Voltage-gated potassium channel subunit beta-2 (Rattus norvegicus) (UniProt P62483)  fluorescence slope     -0.497
6           CCCCc1nc2sc3c(c2c(=O)[nH]1)CCC3  Voltage-gated potassium channel subunit beta-2 (Rattus norvegicus) (UniProt P62483)  fluorescence slope     -0.421

====

- ASSAY_NAME: inhibitors of E-selectin induction by TNFa, primary screen, imaging, HUVEC, immunofluorescence, MLSMR starter and 10KST1 sets (AID 487);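 for nuclei count: 100% = median nuclei count of all wells on the same plate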
- CONDITION_NOTES: HUVEC TNFalpha-induced E-selectin immunofluorescence imaging, at 2 µM; measured here: cell number, toxicity
In this section we review reported nuclei count values for a set of compounds.
RECORDED_METRIC: nuclei count (%)

> print(dat)
                                    compound  result.unit  obs.value
 1         Cn1nnnc1SCC(=O)Nc1ccccc1-c1ccccc1            %        114
 2  CCCCC(CCC(=O)Nc1ccc(C(=O)OC)cc1)C(=O)O (configuration not stated)            %        152
 3                     CCCCNC(=O)OCCNC(=O)NC            %        107
 4         COc1ccccc1C(=O)NCC(=O)n1nc(C)cc1C            %        146
 5    FC(F)(F)c1cccc(-n2cccc2/C=N/n2cnnc2)c1            %        140
 6  COc1ccc(OC)c(C2C(C#N)=C(N)Oc3cc(C)n(Cc4ccccn4)c(=O)c32)c1 (configuration not stated)            %        167
 7      CCC(C(=O)Nc1nccs1)(C(F)(F)F)C(F)(F)F            %        203
 8  COc1cccc(N2CCN(C(=O)c3ccc(=O)oc3)CC2C)c1 (configuration not stated)            %        114
 9            NCCCCCc1nnc(SC/C=C/c2ccccc2)o1            %         94
10  CCc1[nH]nc2c1C1(CCN(C(=O)OCc3ccccc3)CC1)C(C#N)=C(N)O2            %        124
11  CC1C=CC(C)C(C(=O)O)C1C(=O)O (configuration not stated)            %         96
12               CN(C)c1oc(-c2ccccc2F)nc1C#N            %        111

The measurements presented in this section are drawn from PubChem BioAssay.
